# assay-explanation: Solubility measurement in solubilizers (aqueous phosphate buffer at pH 7.4)
# Format: physicochemical
# measurement-setup: 5% Solutol in phosphate buffer, pH 7.4, aqueous with cosolvent or surfactant or cyclodextrin, thermodynamic from solid, 5% Solutol, phosphate buffer pH 7.4, 2 h; read-out: Solubility at 2 h
value-type: solubility at 2 h

Request: Query (molecule): `COc1cccc(CNc2ccc(S(=O)(=O)Nc3nc4ccccc4s3)cc2)c1O` ; field requested: solubility at 2 h
Response: ~100 µg/mL

---

# assay-explanation: Solubility measurement in solubilizers (aqueous phosphate buffer at pH 7.4)
# Format: physicochemical
# measurement-setup: 1% Tween 80 in phosphate buffer, pH 7.4, aqueous with cosolvent or surfactant or cyclodextrin, thermodynamic from solid, 1% Tween 80, phosphate buffer pH 7.4, 2 h; read-out: Solubility at 2 h
value-type: solubility at 2 h (µg/mL)
Provide the reading as a plain figure in µg/mL.

Request: Query (compound): `COc1cccc(CNc2ccc(S(=O)(=O)Nc3nc4ccccc4s3)cc2)c1O` ; field requested: solubility at 2 h
Response: 39
